Molecular target: LXRβ (Homo sapiens, UniProt P55055)
Construct: expressed in transfected cells; host or cells: CV-1 cells
Sequence (P55055 222-460 limits assumed): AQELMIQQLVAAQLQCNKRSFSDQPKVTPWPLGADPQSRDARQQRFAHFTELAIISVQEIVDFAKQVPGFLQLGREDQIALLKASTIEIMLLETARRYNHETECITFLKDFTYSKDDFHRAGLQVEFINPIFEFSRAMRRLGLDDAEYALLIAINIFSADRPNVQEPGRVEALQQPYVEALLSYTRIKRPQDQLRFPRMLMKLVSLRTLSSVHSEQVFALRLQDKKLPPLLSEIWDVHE
Sequence (P19793 227-458 partner limits assumed): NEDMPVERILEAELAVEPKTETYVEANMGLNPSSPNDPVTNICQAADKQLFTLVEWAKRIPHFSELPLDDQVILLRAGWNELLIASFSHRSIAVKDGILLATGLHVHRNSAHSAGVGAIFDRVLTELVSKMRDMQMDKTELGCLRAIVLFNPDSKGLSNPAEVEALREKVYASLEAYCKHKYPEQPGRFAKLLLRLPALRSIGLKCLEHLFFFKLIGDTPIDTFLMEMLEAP
Assay: Transient transfection assay Gal-LXRβ + RXR LBD, UASGx4 TK Luc reporter, CV-1 cells
Assay type: cell-based
Details: dose-response, increasing concentrations; read-out: EC50 for repression of LXRβ constitutive activity
observed-property: EC50

Clc1ccccc1C(c1ccccc1)(c1ccccc1)n1ccnc1 :: ~10 µM
